Below is a list of entries, each paired with its recorded IC50 value.
- Test system: calcium channels (e.g., Cav2.2 subfamily)
- Assay notes: Oocyte assay, calcium channel modulation in Xenopus oocyte heterologous expression system
- Type: cell-based
- Condition set: calcium channel (e.g., Cav2.2 subfamily)
Use µM as the unit, but write only the number.

Consider the following illustrative entries.
| Smiles data | Endpoint result |
| --- | --- |
| COc1ccc(-n2c(-c3ccc(F)cc3)cnc2SCC(=O)NCc2ccco2)cc1 | 5.4 |
| Cc1ccc(-n2c(-c3ccc(F)cc3)cnc2SCc2nc3ccccc3[nH]2)cc1 | 5.7 |

Attention now shifts to the item below.
Ask: Test system calcium channels (e.g., Cav2.2 subfamily); read-out IC50; what value for Cc1ccc(-n2c(-c3ccccc3)cnc2SCc2nc3ccccc3[nH]2)cc1 ?
Result: 6.63
